Source of measurements: ChEMBL document CHEMBL5360597

# measurement.target: Keap1/Nrf2 (Homo sapiens, UniProt Q14145)
# Sequence (Q16236 whole entry, the tested form may be a part): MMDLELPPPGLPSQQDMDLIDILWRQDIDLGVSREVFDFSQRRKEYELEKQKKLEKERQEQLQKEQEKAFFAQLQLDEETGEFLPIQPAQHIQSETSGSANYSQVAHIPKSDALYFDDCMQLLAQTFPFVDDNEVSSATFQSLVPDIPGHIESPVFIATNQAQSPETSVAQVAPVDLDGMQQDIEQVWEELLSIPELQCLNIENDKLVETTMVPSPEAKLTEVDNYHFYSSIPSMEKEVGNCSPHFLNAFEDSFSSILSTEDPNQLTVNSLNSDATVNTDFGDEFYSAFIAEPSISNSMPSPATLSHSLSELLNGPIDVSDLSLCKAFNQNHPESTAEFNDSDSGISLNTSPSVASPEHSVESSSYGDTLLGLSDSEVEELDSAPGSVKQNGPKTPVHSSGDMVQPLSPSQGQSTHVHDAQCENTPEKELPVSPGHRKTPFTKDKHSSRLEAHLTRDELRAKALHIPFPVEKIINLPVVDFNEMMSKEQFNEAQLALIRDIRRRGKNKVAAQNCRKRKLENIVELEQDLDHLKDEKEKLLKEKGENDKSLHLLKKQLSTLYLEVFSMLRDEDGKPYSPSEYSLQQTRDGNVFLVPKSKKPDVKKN
# Sequence (Q14145 whole entry, the tested form may be a part): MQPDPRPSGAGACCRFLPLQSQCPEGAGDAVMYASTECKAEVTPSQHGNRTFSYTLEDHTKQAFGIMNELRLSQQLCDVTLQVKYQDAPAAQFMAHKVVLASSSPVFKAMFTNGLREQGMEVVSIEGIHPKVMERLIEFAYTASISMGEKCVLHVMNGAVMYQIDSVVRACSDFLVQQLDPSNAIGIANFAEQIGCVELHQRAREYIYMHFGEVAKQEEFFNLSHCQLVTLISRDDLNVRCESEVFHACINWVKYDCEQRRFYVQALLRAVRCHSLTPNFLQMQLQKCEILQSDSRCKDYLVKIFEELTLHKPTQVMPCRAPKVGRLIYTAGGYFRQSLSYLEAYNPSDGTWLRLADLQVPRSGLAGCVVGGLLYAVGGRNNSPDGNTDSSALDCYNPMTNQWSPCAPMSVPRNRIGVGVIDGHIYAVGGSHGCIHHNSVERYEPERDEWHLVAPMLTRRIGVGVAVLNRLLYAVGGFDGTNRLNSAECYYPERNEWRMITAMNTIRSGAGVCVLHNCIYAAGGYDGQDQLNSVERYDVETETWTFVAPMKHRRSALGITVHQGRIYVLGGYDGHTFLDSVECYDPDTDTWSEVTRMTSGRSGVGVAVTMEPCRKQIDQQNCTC
# assay.method.text: Inhibition of Keap1 Kelch domain (unknown origin)/FITC-labelled-9mer Nrf2 (unknown origin) protein-protein interaction incubated for 30 mins by fluorescence polarisation assay
readout.kind: IC50

1. COc1ccc(S(=O)(=O)Nc2ccc(NS(=O)(=O)c3cccnc3)cc2)cc1
31.5 µM
